All values here come from ChEMBL document CHEMBL6120968.

- ASSAY_OVERVIEW: Microsomal stability in mouse liver microsome assessed as half life measured upto 60 mins in presence of NADPH and UDPGA by HPLC-MS/MS analysis
- Type: ADME
- COND: liver microsomes
READOUT_NAME: half-life
Be sure to follow the number with its unit.

Request: Quick one: half-life of "Cc1oc(-c2cccc(C(F)(F)F)c2)cc1C(=O)Nc1nc(CN2CCOCC2)ns1" ?
Response: 38.5 min

----------
- ASSAY_OVERVIEW: Cmax in rat at 20 mg/kg, po by LC-MS/MS analysis
- Assay type: ADME, organism-based
- COND: in vivo
READOUT_NAME: Cmax (ng/mL)
Reply with just the number (in ng/mL).

Request: Quick one: Cmax of "Cc1oc(-c2cccc(C(F)(F)F)c2)cc1C(=O)Nc1nc(CN2CCOCC2)ns1" ?
Response: 1880

----------
- ASSAY_OVERVIEW: Half life in rat at 20 mg/kg, iv by LC-MS/MS analysis
- Type: ADME, organism-based
- COND: in vivo
READOUT_NAME: half-life (h)
Reply with just the number (in h).

Request: Quick one: half-life of "Cc1oc(-c2cccc(C(F)(F)F)c2)cc1C(=O)Nc1nc(CN2CCOCC2)ns1" ?
Response: 7.84

----------
- ASSAY_OVERVIEW: Microsomal stability in monkey liver microsome assessed as parent compound remaining at 60 mins in presence of NADPH and UDPGA by HPLC-MS/MS analysis
- Type: ADME, Macaca mulatta
- COND: rhesus monkey, liver microsomes, read-out: Stability
READOUT_NAME: remaining at 1 h (%)
Reply with just the number (in %).

Request: Quick one: remaining at 1 h of "Cc1oc(-c2cccc(C(F)(F)F)c2)cc1C(=O)Nc1nc(CN2CCOCC2)ns1" ?
Response: 55.1

----------
- ASSAY_OVERVIEW: Oral bioavailability in rat at 20 mg/kg by LC-MS/MS analysis
- Format: ADME, organism-based
- COND: in vivo
READOUT_NAME: bioavailability (%)
Reply with just the number (in %).

Request: Quick one: bioavailability of "Cc1oc(-c2cccc(C(F)(F)F)c2)cc1C(=O)Nc1nc(CN2CCOCC2)ns1" ?
Response: 61.5

----------
Please respond with reported inhibition at 10 µM for every item in the list.
- SUBJECT_OF_TEST: hERG (KCNH2) (Homo sapiens, UniProt Q12809)
- Sequence (Q12809 whole entry): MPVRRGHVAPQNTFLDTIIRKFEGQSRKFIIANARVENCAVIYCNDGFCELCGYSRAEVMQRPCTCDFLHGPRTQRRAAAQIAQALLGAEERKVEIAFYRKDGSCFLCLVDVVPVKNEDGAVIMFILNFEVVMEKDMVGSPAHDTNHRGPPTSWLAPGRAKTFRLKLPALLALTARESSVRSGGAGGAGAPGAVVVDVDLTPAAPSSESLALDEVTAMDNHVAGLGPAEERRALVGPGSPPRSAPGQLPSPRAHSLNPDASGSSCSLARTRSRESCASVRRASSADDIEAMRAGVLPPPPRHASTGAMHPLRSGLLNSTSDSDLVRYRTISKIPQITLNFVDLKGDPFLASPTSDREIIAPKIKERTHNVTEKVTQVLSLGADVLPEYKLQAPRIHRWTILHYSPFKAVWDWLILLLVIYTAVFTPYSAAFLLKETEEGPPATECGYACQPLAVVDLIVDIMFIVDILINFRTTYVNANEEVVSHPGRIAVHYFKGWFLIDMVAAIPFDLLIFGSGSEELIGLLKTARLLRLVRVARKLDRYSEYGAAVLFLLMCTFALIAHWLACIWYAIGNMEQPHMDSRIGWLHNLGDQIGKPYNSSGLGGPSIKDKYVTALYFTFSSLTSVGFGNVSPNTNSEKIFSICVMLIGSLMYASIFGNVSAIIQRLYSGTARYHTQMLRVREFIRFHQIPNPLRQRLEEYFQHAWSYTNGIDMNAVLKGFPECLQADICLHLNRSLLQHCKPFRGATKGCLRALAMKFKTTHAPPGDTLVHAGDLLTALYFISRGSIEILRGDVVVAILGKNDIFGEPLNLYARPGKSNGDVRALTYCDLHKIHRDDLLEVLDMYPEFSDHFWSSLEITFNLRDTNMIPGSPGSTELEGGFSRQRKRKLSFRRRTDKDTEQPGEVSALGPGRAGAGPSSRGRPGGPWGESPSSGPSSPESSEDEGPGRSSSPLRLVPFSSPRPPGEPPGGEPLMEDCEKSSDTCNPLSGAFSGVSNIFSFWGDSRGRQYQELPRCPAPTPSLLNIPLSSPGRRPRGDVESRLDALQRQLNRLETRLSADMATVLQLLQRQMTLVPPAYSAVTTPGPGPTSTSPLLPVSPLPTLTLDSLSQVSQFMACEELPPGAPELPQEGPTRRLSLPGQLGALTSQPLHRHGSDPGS
- ASSAY_OVERVIEW: Inhibition of hERG at 10 uM relative to control
- Type: toxicity
Reply with just the number (in %).

Request: Quick one: inhibition at 10 µM of "Cc1oc(-c2cccc(C#N)c2)cc1C(=O)Nc1nc(CN2CCOCC2)ns1" ?
Response: 47.8

Request: Quick one: inhibition at 10 µM of "COc1cccc(-c2cc(C(=O)Nc3nc(CN4CCOCC4)ns3)c(C)o2)c1" ?
Response: 36.9

Request: Quick one: inhibition at 10 µM of "Cc1oc(-c2cccc(OC(F)(F)F)c2)cc1C(=O)Nc1nc(CN2CCOCC2)ns1" ?
Response: 47.3

Request: Quick one: inhibition at 10 µM of "Cc1oc(-c2cccc(OC(F)F)c2)cc1C(=O)Nc1nc(CN2CCOCC2)ns1" ?
Response: 68.3

Request: Quick one: inhibition at 10 µM of "Cc1oc(-c2ccc(Cl)c(C(F)(F)F)c2)cc1C(=O)Nc1nc(CN2CCOCC2)ns1" ?
Response: 51.3
